Ref: PubChem BioAssay (NCI)

- System: BT-549 breast
- assay_info: NCI-60 one-dose screen, 48 h (100 = growth as untreated, 0 = no growth, -100 = all killed)
- condition_notes: 10 µM
The panel holds about 83,000 compounds, 20% with a hit somewhere; the sample as a whole holds those more often.
readout_type: growth (%)
Quick note: give the figure in %, leave out the unit.

So for "COC[C@@H](CC(C)C)N=C1N/C(=C\c2ccc3ncsc3c2)C(=O)N1C" , the logged growth turned out to be 7.17

So for "COc1ccc(-c2nc(Nc3ccccc3S(N)(=O)=O)c3ccccc3n2)cc1" , the logged growth turned out to be 85.8

So for "Cc1ccc(NC(=O)c2ccc(-n3c(=O)[nH]c4ccccc4c3=O)cc2)cc1" , the logged growth turned out to be 24.4

So for COc1ccc(N2N=C(c3ccc4c(c3)OCCO4)CC2c2cccc(NC(=O)CCCNS(=O)(=O)c3ccc(F)cc3)c2)cc1 (stereo unspecified) , the logged growth turned out to be 78.3

So for "CN1CCN(c2ccc(Nc3nc(NCCCNC(=O)c4ccc(F)cc4)c4sccc4n3)cc2)CC1" , the logged growth turned out to be 108

So for "Cc1cc(C)cc(Oc2cccc(-c3c(C)nnn3C3CCN(CCN(C)C)CC3)n2)c1" , the logged growth turned out to be 9.68

So for "CN1CCN(c2ccc(C(=O)/C=C/c3ccc(C#N)cc3)cc2)CC1" , the logged growth turned out to be 91.1

So for "O=c1cc(-c2ccccc2)oc2cc(OCCCCNCc3ccccc3)cc(O)c12" , the logged growth turned out to be 78.5

So for "COc1ccc(-c2ccc(/C=N/NC(=O)c3[nH]c4ccc(Br)cc4c3-c3ccccc3)o2)cc1" , the logged growth turned out to be 75.6

So for "O=C(Cn1nc(-c2ccccc2)ccc1=O)NN1C(=O)c2ccccc2C1=O" , the logged growth turned out to be 110

So for "CCOC(=O)CNC(=O)CN(Cc1ccccc1)C(=O)[C@@]1(C)CCC[C@]2(C)[C@H]3C[C@H]4C(C(C)C)=C[C@]3(CC[C@H]21)[C@@H]1C(=O)OC(=O)[C@@H]14" , the logged growth turned out to be 76.2

So for "Cc1ccc(-c2nc3ccc(C(=O)N=Nc4c(O)[nH]c5ccc(Br)cc45)cc3[nH]2)cc1" , the logged growth turned out to be 138

So for "COc1ccc(-c2nc(S(=O)(=O)c3ccc(C)cc3)c(S(C)(=O)=O)o2)cc1" , the logged growth turned out to be -12.5

So for "COc1ccc(/C=C/C(=O)c2ccc(S(=O)(=O)NCCNc3nc(Nc4ccc(F)cc4)nc(N(C)C)n3)cc2)cc1" , the logged growth turned out to be 36.2

So for "CC1(C)CC[C@]23CC[C@]4(C)[C@H](CC[C@@H]5[C@@]6(C)CC[C@H](N)C(C)(C)[C@@H]6CC[C@]54C)[C@H]2[C@H]1OC3=O" , the logged growth turned out to be -97.7

So for O=C1CCC(N2Cc3c(C#CCCCNC(=O)c4ccc(NC(=O)[C@@H]5NC6(CCCCC6)[C@@]6(C(=O)Nc7cc(Cl)ccc76)[C@H]5c5cccc(Cl)c5F)cc4)cccc3C2=O)C(=O)N1 (stereo partly specified) , the logged growth turned out to be 32.5

So for "Cc1noc2c(Cc3ccccc3)nn(CC(=O)N/N=C/c3ccc(Br)cc3)c(=O)c12" , the logged growth turned out to be 87.2

So for "c1ccc(C(=C(c2ccc(OCCN3CCCCC3)cc2)c2ccc(OCCN3CCCCC3)cc2)C2CCCC2)cc1" , the logged growth turned out to be -54.7

So for OCc1[nH]nc2cc(Nc3ncc4ccc(Br)c(OC5CCC(O)CC5)c4n3)ccc12 (stereo unspecified) , the logged growth turned out to be -42.5

So for "CO[C@@H]1CSS[C@H]1Cn1nc(-c2ccc(Oc3ccccc3)cc2)c2c(N)ncnc21" , the logged growth turned out to be 63.8

So for "O=C1NC(=NC23CC4CC(CC(C4)C2)C3)N/C1=C\c1ccc2ncoc2c1" , the logged growth turned out to be -20.6

So for C=C1CCC2C3(C)COC(c4c(F)cccc4F)OC3CCC2(C)C1CC(O)C1=CCOC1=O (stereo unspecified) , the logged growth turned out to be -9.18

So for "Cc1cccc(-c2nc(Nc3ccccc3C(=O)O)c3ccccc3n2)c1" , the logged growth turned out to be -0.675

So for "N#Cc1ccc(-c2nn(-c3ccc(C(=O)O)cc3)cc2CNc2ccc(Oc3ccccc3)cc2)cc1" , the logged growth turned out to be -5.49

So for O=C(c1ccc(O)cc1)C1[C@H](c2ccccc2Br)[C@@H](c2ccccc2)NC12C(=O)Nc1ccc(Br)cc12 (stereo partly specified) , the logged growth turned out to be 55.6

So for "O=C(CS(=O)(=O)c1oc(-c2ccc(Cl)cc2)nc1S(=O)(=O)c1ccccc1)N1CCCC1" , the logged growth turned out to be -3.43

So for "Nc1nc2c(F)c(F)c(F)c(F)c2s1" , the logged growth turned out to be 105

So for "O=C(CNc1nc(-c2ccccc2)cs1)Nc1ccc([N+](=O)[O-])cc1" , the logged growth turned out to be 12.3

So for "O/N=C(\CSc1nnc(-c2c[nH]c3ccccc23)n1-c1ccccc1)c1ccc(Cl)cc1" , the logged growth turned out to be -66.7

So for CCOC(=O)C1=C(N)N(c2ccccc2)C2=C(C(=O)CC(C)(C)C2)C1c1ccccc1OC (stereo unspecified) , the logged growth turned out to be 105

So for "O=C1Nc2ccc(F)cc2/C1=C/c1cccc(OCc2ccccc2)c1" , the logged growth turned out to be 23

So for "COc1cccc(-c2ccnc(/N=C(\N)Nc3ccc(S(=O)(=O)Nc4nc(C)cc(C)n4)cc3)n2)c1" , the logged growth turned out to be 111

So for "O=C(Nc1ccc(F)c(Cl)c1)c1cc(-c2ccc(F)cc2F)ccc1O" , the logged growth turned out to be -37.6

So for "COc1ccc(C(C)=C(c2ccc(OCCCN(C)C)cc2)c2ccc(OCCCN(C)C)cc2)cc1" , the logged growth turned out to be -78.4

So for "CN1C(=O)/C(=C/c2nccs2)SC1=S" , the logged growth turned out to be 90.2

So for "O=C(Nc1nc2ccc([N+](=O)[O-])cc2s1)Nc1cc(Cl)ccc1I" , the logged growth turned out to be -87.2
